FYI, the data here is from patent US12390446B2.

# Target system: NPFF1 receptor (human NPFFR1 in CHO-RD-HGA16 cells) (Homo sapiens)
# Construct: expressed in transfected cells
# Sequence (Q9GZQ6 whole entry): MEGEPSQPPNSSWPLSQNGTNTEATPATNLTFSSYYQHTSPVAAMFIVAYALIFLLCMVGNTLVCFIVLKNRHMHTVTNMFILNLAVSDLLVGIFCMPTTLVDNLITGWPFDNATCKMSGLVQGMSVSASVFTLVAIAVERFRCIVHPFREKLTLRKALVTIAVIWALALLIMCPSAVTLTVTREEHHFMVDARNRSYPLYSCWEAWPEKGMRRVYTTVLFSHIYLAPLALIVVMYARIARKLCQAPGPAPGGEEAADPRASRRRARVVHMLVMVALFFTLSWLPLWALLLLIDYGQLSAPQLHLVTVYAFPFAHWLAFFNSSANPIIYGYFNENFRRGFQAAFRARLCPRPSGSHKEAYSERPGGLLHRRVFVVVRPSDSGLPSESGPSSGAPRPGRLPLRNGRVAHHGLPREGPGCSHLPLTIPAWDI
# Assay summary: Calcium mobilization functional Ke assay, NPFF1
# Assay type: cell-based
# Reported conditions: Table 1; footnote c: pre-incubation of antagonist and test compound 45 min or 1 hr; read-out: NPFF1 Ke
Recorded endpoint: Kb (nM)

(I) COc1ccc(CN[C@H]2C[C@@H](C(=O)N3CCN(c4ccccc4)CC3)N(Cc3ccccc3Cl)C2)cc1
(II) CCCN(CCC)C(=O)[C@@H]1C[C@H](NCc2ccc(OC)cc2)CN1Cc1ccccc1Cl
Challenge: // pick larger Kb from pair: I vs II Select an item and report its label.
Response given: I
(I: 1330 nM, II: 880 nM)

---

# Target system: NPFF1 receptor (human NPFFR1 in CHO-RD-HGA16 cells) (Homo sapiens)
# Construct: expressed in transfected cells
# Assay summary: Calcium mobilization functional Ke assay, NPFF1
# Type: cell-based
# Reported conditions: Table 2; 4-(4-methylthio)benzylamino series; mean ± SEM; read-out: NPFF1 Ke
Recorded endpoint: Kb (nM)

Compound	Target system	Test result
CSc1ccc(CN[C@H]2C[C@@H](C(=O)NCCc3ccccc3)N(Cc3ccccc3Cl)C2)cc1 [Compound 45]	NPFF1 receptor (human NPFFR1 in CHO-RD-HGA16 cells) (Homo sapiens)	530
CSc1ccc(CN[C@H]2C[C@@H](C(=O)NCCc3ccc(F)c(F)c3)N(Cc3ccccc3Cl)C2)cc1 [Compound 48]	NPFF1 receptor (human NPFFR1 in CHO-RD-HGA16 cells) (Homo sapiens)	470

(I) CCCCCNC(=O)[C@@H]1C[C@H](NCc2ccc(SC)cc2)CN1Cc1ccccc1Cl [Compound 44]
(II) CCNC(=O)[C@@H]1C[C@H](NCc2ccc(SC)cc2)CN1Cc1ccccc1Cl [Compound 43]
Challenge: Which record shows the lower Kb: the first, I , or the second, II ? Let me know the label of the one you choose.
Response given: I
(I: 360 nM, II: 1080 nM)

---

# Target system: NPFF1 receptor (CHO-hNPFFR1 membranes) (Homo sapiens)
# Construct: purchased PerkinElmer RBHNF1M400UA; host or cells: CHO cell membranes
# Assay summary: Radioligand binding assay, [125I]NPFF, NPFF1
Recorded endpoint: pKi
pKi is defined as minus the log10 of a concentration measured in mol/L.

Challenge: Request body: readout pKi, system NPFF1 receptor (CHO-hNPFFR1 membranes) (Homo sapiens), query COc1ccc(CN[C@H]2C[C@@H](C(=O)NCCc3ccc([N+](=O)[O-])cc3)N(Cc3ccccc3Cl)C2)cc1 . Return the value.
Response given: 6.21

---

# Target system: NPFF1 receptor (human NPFFR1 in CHO-RD-HGA16 cells) (Homo sapiens)
# Construct: expressed in transfected cells
# Assay summary: Calcium mobilization functional Ke assay, NPFF1
# Format: cell-based
# Reported conditions: calcium mobilization assay; read-out: NPFF1 Ke
Recorded endpoint: Kb (nM)

Test smiles	Test result
CSc1ccc(CN[C@H]2C[C@@H](C(=O)NCCc3ccccc3)N(Cc3ccccc3Cl)C2)cc1	530
CSc1ccc(CN[C@H]2C[C@@H](C(=O)NCCc3ccc(F)c(F)c3)N(Cc3ccccc3Cl)C2)cc1	470
CCCCCNC(=O)[C@@H]1C[C@H](NCc2ccc(OC)cc2)CN1Cc1ccccc1Cl	720
CCCN(CCC)C(=O)[C@@H]1C[C@H](NCc2ccc(OC)cc2)CN1Cc1ccccc1Cl	880
COc1ccc(CN[C@H]2C[C@@H](C(=O)NCCc3ccccc3)N(Cc3ccccc3Cl)C2)cc1	850

(I) COc1ccc(CCNC(=O)[C@@H]2C[C@H](NCc3ccc(OC)cc3)CN2Cc2ccccc2Cl)cc1
(II) CCCCCNC(=O)[C@@H]1C[C@H](NCc2ccc(SC)cc2)CN1Cc1ccccc1Cl
(III) CCCNC(=O)[C@@H]1C[C@H](NCc2ccc(OC)cc2)CN1Cc1ccccc1Cl
Challenge: # rank_down: sort by Kb, max first Reply with the labels, ordered as the question asks.
Response given: III, I, II

---

# Target system: NPFF2 receptor (human NPFFR2 in CHO-RD-HGA16 cells) (Homo sapiens)
# Construct: expressed in transfected cells
# Assay summary: Calcium mobilization functional Ke assay, NPFF2
# Format: cell-based
# Reported conditions: Table 1; footnote c: pre-incubation of antagonist and test compound 45 min or 1 hr; read-out: NPFF2 Ke
Recorded endpoint: Kb (µM)

Completed entries (count: 4):
Compound	Target system	Endpoint unit	Test result
CCCN(CCC)C(=O)[C@@H]1C[C@H](NCc2ccc(OC)cc2)CN1Cc1ccccc1Cl [Compound 41]	NPFF2 receptor (human NPFFR2 in CHO-RD-HGA16 cells) (Homo sapiens)	µM	1.73
COc1ccc(CN[C@H]2C[C@@H](C(=O)NCCC(C)C)N(Cc3ccccc3Cl)C2)cc1 [Compound 17]	NPFF2 receptor (human NPFFR2 in CHO-RD-HGA16 cells) (Homo sapiens)	µM	1.54
COc1ccc(CCNC(=O)[C@@H]2C[C@H](NCc3ccc(OC)cc3)CN2Cc2ccccc2Cl)cc1 [Compound 26]	NPFF2 receptor (human NPFFR2 in CHO-RD-HGA16 cells) (Homo sapiens)	µM	1.75
COc1ccc(CN[C@H]2C[C@@H](C(=O)NCc3ccccc3)N(Cc3ccccc3Cl)C2)cc1 [Compound 23]	NPFF2 receptor (human NPFFR2 in CHO-RD-HGA16 cells) (Homo sapiens)	µM	2.01

(P) COc1ccc(CN[C@H]2C[C@@H](C(=O)NCCC3CCCCC3)N(Cc3ccccc3Cl)C2)cc1 [Compound 21]
(Q) COc1ccc(CN[C@H]2C[C@@H](C(=O)N3CCN(c4ccccc4)CC3)N(Cc3ccccc3Cl)C2)cc1 [Compound 42]
Challenge: Between the entries labeled P and Q , whose measured Kb is lower? Write the label of whichever entry you select.
Response given: P
(P: 1.22 µM, Q: 2.08 µM)

---

# Target system: NPFF2 receptor (human NPFFR2 in CHO-RD-HGA16 cells) (Homo sapiens, UniProt Q9Y5X5)
# Construct: expressed in transfected cells
# Sequence (Q9Y5X5 whole entry): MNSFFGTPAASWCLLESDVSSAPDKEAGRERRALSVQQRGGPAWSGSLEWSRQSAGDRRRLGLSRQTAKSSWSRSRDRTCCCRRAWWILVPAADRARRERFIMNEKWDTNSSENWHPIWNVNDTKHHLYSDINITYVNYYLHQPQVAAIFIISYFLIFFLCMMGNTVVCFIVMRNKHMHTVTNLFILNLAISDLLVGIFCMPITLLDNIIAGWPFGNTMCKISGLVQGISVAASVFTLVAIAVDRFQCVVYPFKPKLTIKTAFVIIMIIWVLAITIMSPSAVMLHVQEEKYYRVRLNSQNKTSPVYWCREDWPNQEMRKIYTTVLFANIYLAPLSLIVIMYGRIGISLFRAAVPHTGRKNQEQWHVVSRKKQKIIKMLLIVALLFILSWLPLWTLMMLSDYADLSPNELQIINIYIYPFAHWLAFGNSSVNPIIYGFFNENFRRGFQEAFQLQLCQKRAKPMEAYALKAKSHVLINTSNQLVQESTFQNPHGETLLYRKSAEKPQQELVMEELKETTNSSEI
# Assay summary: Calcium mobilization functional Ke assay, NPFF2
# Type: cell-based
# Reported conditions: Table 3; mean ± SEM; read-out: NPFF2 Ke
Recorded endpoint: Kb (µM)

Test smiles	Endpoint unit	Kb
O=C(NCCc1ccc([N+](=O)[O-])cc1)[C@@H]1C[C@H](NCc2ccc(Cl)cc2)CN1Cc1ccccc1Cl	µM	1.86
O=C(NCCc1ccc([N+](=O)[O-])cc1)[C@@H]1C[C@H](NCc2ccc(C(F)(F)F)cc2)CN1Cc1ccccc1Cl	µM	6.38

(I) O=C(NCCc1ccc([N+](=O)[O-])cc1)[C@@H]1C[C@H](NCCc2ccccc2)CN1Cc1ccccc1Cl
(II) COc1cccc(CN[C@H]2C[C@@H](C(=O)NCCc3ccc([N+](=O)[O-])cc3)N(Cc3ccccc3Cl)C2)c1
Challenge: Endpoint returns whichever of I and II has the numerically higher Kb. Your answer should be the label attached to the chosen record.
Response given: II
(II: 2.82 µM, I: 1.13 µM)

---

# Target system: NPFF1 receptor (human NPFFR1 in CHO-RD-HGA16 cells) (Homo sapiens)
# Construct: expressed in transfected cells
# Assay summary: Calcium mobilization functional Ke assay, NPFF1
# Type: cell-based
# Reported conditions: Table 3; mean ± SEM; read-out: NPFF1 Ke
Recorded endpoint: Kb (nM)

Recorded Kb, per entry:
Test smiles	Target system	Test result
O=C(NCCc1ccc([N+](=O)[O-])cc1)[C@@H]1C[C@H](NCc2ccc(O)cc2)CN1Cc1ccccc1Cl	NPFF1 receptor (human NPFFR1 in CHO-RD-HGA16 cells) (Homo sapiens)	4790
O=C(NCCc1ccc([N+](=O)[O-])cc1)[C@@H]1C[C@H](NCc2ccccc2)CN1Cc1ccccc1Cl	NPFF1 receptor (human NPFFR1 in CHO-RD-HGA16 cells) (Homo sapiens)	1230
CCCCCN[C@H]1C[C@@H](C(=O)NCCc2ccc([N+](=O)[O-])cc2)N(Cc2ccccc2Cl)C1	NPFF1 receptor (human NPFFR1 in CHO-RD-HGA16 cells) (Homo sapiens)	2480

(A) COc1cccc(CN[C@H]2C[C@@H](C(=O)NCCc3ccc([N+](=O)[O-])cc3)N(Cc3ccccc3Cl)C2)c1
(B) CCCCN[C@H]1C[C@@H](C(=O)NCCc2ccc([N+](=O)[O-])cc2)N(Cc2ccccc2Cl)C1
Challenge: Dear colleague, could you let me know whether A or B has the lower recorded Kb? Thanks. Pick one and reply with its label.
Response given: A

---

# Target system: NPFF2 receptor (human NPFFR2 in CHO-RD-HGA16 cells) (Homo sapiens)
# Construct: expressed in transfected cells
# Assay summary: Calcium mobilization functional Ke assay, NPFF2
# Format: cell-based
# Reported conditions: Table 3; mean ± SEM; read-out: NPFF2 Ke
Recorded endpoint: Kb (µM)

Test smiles	Kb (µM)
CCCCCCN[C@H]1C[C@@H](C(=O)NCCc2ccc([N+](=O)[O-])cc2)N(Cc2ccccc2Cl)C1	4.47
O=C(NCCc1ccc([N+](=O)[O-])cc1)[C@@H]1C[C@H](NCc2ccc(O)cc2)CN1Cc1ccccc1Cl	6.37

(a) O=C(NCCc1ccc([N+](=O)[O-])cc1)[C@@H]1C[C@H](NCc2ccccc2)CN1Cc1ccccc1Cl
(b) COc1ccc(CN[C@H]2C[C@@H](C(=O)NCCc3ccc([N+](=O)[O-])cc3)N(Cc3ccccc3Cl)C2)cc1OC
Challenge: Compare a and b and name the one whose reported Kb is smaller. Indicate your choice by writing its label.
Response given: a
